# Test system: CCRF-CEM leukemia
# test: NCI tumour cell line growth inhibition, 48 h
Please respond with reported TGI for every item in the list.

CC1=CC[C@@H]2C(C)(C)C(=O)CC[C@@]2(C)[C@@H]1COc1ccc2ccc(=O)oc2c1 ... 70.9 µM
O=C(CC(=O)c1ccc([N+](=O)[O-])cc1)C(=O)Nc1nccs1 ... > 100 µM
CCN(CC)c1ccc2c(c1)OC(=O)C(c1nnc(-c3ccc([N+](=O)[O-])cc3)o1)C2 (stereo not given) ... > 100 µM

Parameters: items (list). Returns: TGI for each item.
1. CC1(C)OCC2(CO1)CSCCCSCC1(COC(C)(C)OC1)CSCCCSC2
2. CCC(CS(=O)(=O)O)[N+](=O)[O-] (stereo not given)

> 100 µM
> 100 µM
